# Assay details: Stat Signaling Pathway (AID 446);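 also: ME-180 cervical cancer cells given 40 pM IL-6 alongside compound; SIE-controlled beta-lactamase reporter measured as 460/530 nm FRET emission ratio; % is scaled to controls: 0 for no effect and ±100 for the full control effect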
# Condition notes: ME-180 SIE beta-lactamase reporter, IL-6 stimulated, 5 h; at 17.2 µM (top of the series) unless noted
Records with an inconclusive call do not appear. Active and inactive are the calls of the source. Calls follow the shape of the dose curve; as a rule, active = well fitted curve in either direction with a large enough effect (not every such curve was filed as active); inconclusive = small, poorly fitted or top-dose-only effect, or another doubt; inactive = flat fitted curve, though single readings scatter.
Metric: activity, negative = inhibition

Some compounds with known activity, negative = inhibition results, for comparison:
Compound: Cc1nc2sc(C#N)c(N)c2c2c1CCCC2
Metric: activity, negative = inhibition
Result: -6.2% (inactive)

Compound: O=CN1CCN(C(=O)CN2C(=O)c3ccccc3C2=O)CC1
Metric: activity, negative = inhibition
Result: 6.47% (inactive)

Compound: CCCCc1nc(N2CCOCC2)c(C#N)c2c1COC(C)(C)C2
Metric: activity, negative = inhibition
Result: -1.34% (inactive)

Compound: CN1CCN(CCCCOc2ccc(F)cc2)CC1
Metric: activity, negative = inhibition
Result: -0.445% (inactive)

Compound: COc1ccc2c(c1)C1(C)CC(C)(C)N2C(=O)N1c1ccccc1 (stereo unspecified)
Metric: activity, negative = inhibition
Result: -17.2% (inactive)

Moving on to the next compound.
Quick one: activity, negative = inhibition for CCOC(=O)C(NC=O)(NC(C)(C)C)C(=O)OCC ?
24.2% (inactive)

====

# activity change, negative = inhibition values compiled below
# Assay details: AP1 Signaling Pathway (AID 357);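 also: ME-180 reporter cells stimulated with EGF at its EC50 level; % is scaled to controls: 0 for no effect and ±100 for the full control effect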
# Condition notes: ME-180 AP-1-bla reporter, EGF-induced, beta-lactamase ratio, 5 h; at 17.2 µM (top of the series) unless noted
Results filed as inconclusive are left out.
Write down the numeric answer in % and omit the unit.

Some compounds with known activity change, negative = inhibition results, for comparison:
Compound: CCOC(=O)c1cnn2c1[nH]c(=O)c1ccccc12
Metric: activity change, negative = inhibition
Numeric readout: -8.34
--
Compound: C=CCN(C)CCCNC(=O)/C=N/O
Metric: activity change, negative = inhibition
Numeric readout: -0.81
--
Compound: CCCCC(=O)Nc1c(O)c2ccccc2[nH]c1=O
Metric: activity change, negative = inhibition
Numeric readout: 4

Quick one: activity change, negative = inhibition for CC(=O)Nc1cc2c(cc1Br)OCCO2 ?
0.764

Quick one: activity change, negative = inhibition for O=C(O)c1c[nH]c2ccc(S(=O)(=O)N3CCOCC3)cc12 ?
13.4

Quick one: activity change, negative = inhibition for Cn1c[n+](C)cc1/C=N/O ?
6.85

Quick one: activity change, negative = inhibition for CC(C)(C)NCc1cc2ccccc2[nH]c1=O ?
-4.82

Quick one: activity change, negative = inhibition for CCN(CC)Cc1c(O)ccc2c(C)c(CC(=O)OC)c(=O)oc12 ?
14.2

Quick one: activity change, negative = inhibition for O=C(Nc1nccs1)NC(C(F)(F)F)C(F)(F)F ?
-10.3

====

# Assay details: Stat Signaling Pathway (AID 446);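 also: ME-180 cervical cancer cells given 40 pM IL-6 alongside compound; SIE-controlled beta-lactamase reporter measured as 460/530 nm FRET emission ratio; % is scaled to controls: 0 for no effect and ±100 for the full control effect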
# Condition notes: ME-180 (cervical carcinoma) SIE beta-lactamase reporter, IL-6 stimulated, 5 h; at 17.2 µM (top of the series) unless noted
Inconclusive results are not listed. Calls of active or inactive are those of the source. Calls follow the shape of the dose curve; as a rule, active = well fitted curve in either direction with a large enough effect (not every such curve was filed as active); inconclusive = small, poorly fitted or top-dose-only effect, or another doubt; inactive = flat fitted curve, though single readings scatter.
# activity, negative = inhibition values compiled below

Some molecules with known activity, negative = inhibition results, for comparison:
Molecule: CSc1nc(Oc2ccc(=O)[nH]n2)nc(N(C)C)n1
activity, negative = inhibition: 3.84% (inactive)
//
Molecule: C/C(CC1(O)C(=O)N(Cc2ccccc2)c2ccccc21)=N\O (stereo unspecified)
activity, negative = inhibition: 3.88% (inactive)

Quick one: activity, negative = inhibition for N#Cc1ccc(-c2ccc(OCC(O)Cn3nnc4ccccc43)cc2)cc1 (stereo unspecified) ?
-29.1% (inactive)

Quick one: activity, negative = inhibition for Cc1nn(-c2ccccc2)c2c1C(=O)NC(=O)C(C)(C)C2 ?
3.56% (inactive)

Quick one: activity, negative = inhibition for Cc1ccc(-c2nn(C)c(=O)c3ccccc23)cc1CN1CCOCC1 ?
-0.983% (inactive)

Quick one: activity, negative = inhibition for CCOc1ccc(C2/C(=C(/O)c3ccc(OC)cc3)C(=O)C(=O)N2c2cc(C)on2)cc1OC (stereo unspecified) ?
-9.83% (inactive)

Quick one: activity, negative = inhibition for Cc1coc2c(O)cc3c(c12)OC1(N2CCCCC2)C(=O)NCCCC31 (stereo unspecified) ?
-21.8% (inactive)

Quick one: activity, negative = inhibition for COCCCNC(=O)c1c(N)n(/N=C/c2cccs2)c2nc3ccccc3nc12 ?
21.4% (inactive)

Quick one: activity, negative = inhibition for CC1(C)CC(=O)C2=C(C1)N(Cc1ccco1)C(=O)C2(NC(=O)c1cccnc1)C(F)(F)F (stereo unspecified) ?
-9.45% (inactive)

Quick one: activity, negative = inhibition for c1ccc(CN2CCN(c3nc(-c4ccccn4)nc4ccccc34)CC2)cc1 ?
6.73% (inactive)

Quick one: activity, negative = inhibition for O=C(CN1C(=O)c2ccccc2C1=O)NCc1ccccn1 ?
10.5% (inactive)

The measured values listed here are drawn from PubChem BioAssay (NCATS).
